For each of the compounds below, state its zone of inhibition at 1000 µg/mL.
- Tested on: Pseudomonas aeruginosa
- Method notes: Antimicrobial activity against Pseudomonas aeruginosa MTCC 1688 at 0.02 ml of 1 mg/ml after 24 hrs by cup plate method
- Format: functional
- Condition set: MTCC 1688, 24 h, read-out: DIZ
Answers are plain numbers, in mm.

Some entries whose results are on file:
>>> print(df.to_string())
                                   compound  data_value
0  O=C(NCC(=O)N(C(=O)NC1CCCCC1)C1CCCCC1)/C(=C\c1ccccc1)NC(=O)c1ccccc1        19.4
1  O=C(NC(CS)C(=O)N(C(=O)NC1CCCCC1)C1CCCCC1)/C(=C\c1ccc(O)cc1)NC(=O)c1ccccc1 (stereo unspecified)        20.7
2  O=C(NC(CS)C(=O)N(C(=O)NC1CCCCC1)C1CCCCC1)/C(=C\c1ccc(F)cc1)NC(=O)c1ccccc1 (stereo unspecified)        16.6
3  CC(C)c1ccc(/C=C(/NC(=O)c2ccccc2)C(=O)NC(CS)C(=O)N(C(=O)NC2CCCCC2)C2CCCCC2)cc1 (stereo unspecified)        15.4
4  O=C(NCC(=O)N(C(=O)NC1CCCCC1)C1CCCCC1)/C(=C\c1ccc(O)cc1)NC(=O)c1ccccc1        18.5
5  COc1cc(/C=C(/NC(=O)c2ccccc2)C(=O)NC(CS)C(=O)N(C(=O)NC2CCCCC2)C2CCCCC2)ccc1O (stereo unspecified)        20.8

Look up zone of inhibition at 1000 µg/mL for the entries below, preserving their order.
1. O=C(NC(CS)C(=O)N(C(=O)NC1CCCCC1)C1CCCCC1)/C(=C\c1ccc(Cl)cc1)NC(=O)c1ccccc1 (stereo unspecified)
2. Cc1ccc(/C=C(/NC(=O)c2ccccc2)C(=O)NCC(=O)N(C(=O)NC2CCCCC2)C2CCCCC2)cc1
3. Cc1ccc(/C=C(/NC(=O)c2ccccc2)C(=O)NC(CS)C(=O)N(C(=O)NC2CCCCC2)C2CCCCC2)cc1 (stereo unspecified)
4. O=C(NC(CS)C(=O)N(C(=O)NC1CCCCC1)C1CCCCC1)/C(=C\c1ccccc1)NC(=O)c1ccccc1 (stereo unspecified)
5. CC(C)c1ccc(/C=C(/NC(=O)c2ccccc2)C(=O)NCC(=O)N(C(=O)NC2CCCCC2)C2CCCCC2)cc1

Result:
1. 17.4
2. 17.6
3. 18.4
4. 20.6
5. 17.3

====

- Test system: Mus musculus
- Method notes: Analgesic activity in Swiss albino mouse assessed as inhibition of acetic acid-induced writhing response at 100 mg/kg, po administered 1 hr before acetic acid challenge after 5 mins
- Type: functional
Kindly supply the reported inhibition in vivo at 100 mg/kg values for the records listed here.
Answers are plain numbers, in %.

In [3]: df
Out[3]:
                                   molecule  tested_system                           metric  data_value
0  O=C(NC(CS)C(=O)N(C(=O)NC1CCCCC1)C1CCCCC1)/C(=C\c1ccc(O)cc1)NC(=O)c1ccccc1 (stereo not drawn)   Mus musculus  inhibition in vivo at 100 mg/kg        43.2

Hey, quick one: what's inhibition in vivo at 100 mg/kg for each of these?
1. O=C(NC(CS)C(=O)N(C(=O)NC1CCCCC1)C1CCCCC1)/C(=C\c1ccccc1)NC(=O)c1ccccc1 (stereo not drawn)
2. O=C(NC(CS)C(=O)N(C(=O)NC1CCCCC1)C1CCCCC1)/C(=C\c1ccc(Cl)cc1)NC(=O)c1ccccc1 (stereo not drawn)
3. COc1cc(/C=C(/NC(=O)c2ccccc2)C(=O)NC(CS)C(=O)N(C(=O)NC2CCCCC2)C2CCCCC2)ccc1O (stereo not drawn)
4. Cc1ccc(/C=C(/NC(=O)c2ccccc2)C(=O)NCC(=O)N(C(=O)NC2CCCCC2)C2CCCCC2)cc1
5. O=C(NCC(=O)N(C(=O)NC1CCCCC1)C1CCCCC1)/C(=C\c1ccc(Cl)cc1)NC(=O)c1ccccc1
6. O=C(NCC(=O)N(C(=O)NC1CCCCC1)C1CCCCC1)/C(=C\c1ccccc1)NC(=O)c1ccccc1
7. CC(C)c1ccc(/C=C(/NC(=O)c2ccccc2)C(=O)NCC(=O)N(C(=O)NC2CCCCC2)C2CCCCC2)cc1

Result:
[56.8, 40.8, 48, 48.8, 27.6, 54, 47.4]

====

- Method notes: Cytotoxicity against brine shrimps larvae assessed as mortality after 24 hrs
- Format: organism-based
- Condition set: artemia, in vivo; read-out: ED50
Metric: LC50 at 24 h (µg/mL)
One number for each entry, in µg/mL.

Record excerpt, results attached:
                                   compound        metric  data_value
0  O=C(NCC(=O)N(C(=O)NC1CCCCC1)C1CCCCC1)/C(=C\c1ccc(O)cc1)NC(=O)c1ccccc1  LC50 at 24 h         9.1
1  CC(C)c1ccc(/C=C(/NC(=O)c2ccccc2)C(=O)NC(CS)C(=O)N(C(=O)NC2CCCCC2)C2CCCCC2)cc1 (configuration not stated)  LC50 at 24 h        16.7
2  COc1cc([C@@H]2c3cc4c(cc3[C@H](O)[C@H]3COC(=O)[C@H]23)OCO4)cc(OC)c1OC  LC50 at 24 h        3.77
3  O=C(NC(CS)C(=O)N(C(=O)NC1CCCCC1)C1CCCCC1)/C(=C\c1ccccc1)NC(=O)c1ccccc1 (configuration not stated)  LC50 at 24 h        3.53

For every listed record, write down its LC50 at 24 h.
1. O=C(NC(CS)C(=O)N(C(=O)NC1CCCCC1)C1CCCCC1)/C(=C\c1ccc(O)cc1)NC(=O)c1ccccc1 (configuration not stated)
2. O=C(NCC(=O)N(C(=O)NC1CCCCC1)C1CCCCC1)/C(=C\c1ccccc1)NC(=O)c1ccccc1
3. O=C(NC(CS)C(=O)N(C(=O)NC1CCCCC1)C1CCCCC1)/C(=C\c1ccc(Cl)cc1)NC(=O)c1ccccc1 (configuration not stated)

Result:
4.38
6.02
10

====

- Test system: Escherichia coli
- Method notes: Antimicrobial activity against Escherichia coli ESS 2231 at 0.02 ml of 1 mg/ml after 24 hrs by cup plate method
- Type: functional
- Condition set: ESS 2231, 24 h, read-out: DIZ
Given measured zone of inhibition at 1000 µg/mL, output fulfilled if it is greater than or equal to 20 mm and not fulfilled if not.

For orientation, consider the following solved cases.
                                   molecule  assigned_label
0  Cc1ccc(/C=C(/NC(=O)c2ccccc2)C(=O)NCC(=O)N(C(=O)NC2CCCCC2)C2CCCCC2)cc1   not fulfilled
1  O=C(NC(CS)C(=O)N(C(=O)NC1CCCCC1)C1CCCCC1)/C(=C\c1ccccc1)NC(=O)c1ccccc1 (configuration not stated)       fulfilled
2  Cc1ccc(/C=C(/NC(=O)c2ccccc2)C(=O)NC(CS)C(=O)N(C(=O)NC2CCCCC2)C2CCCCC2)cc1 (configuration not stated)       fulfilled

Query: Quick check, zone of inhibition at 1000 µg/mL >= 20 mm? COc1cc(/C=C(/NC(=O)c2ccccc2)C(=O)NC(CS)C(=O)N(C(=O)NC2CCCCC2)C2CCCCC2)ccc1O (configuration not stated)
Result: fulfilled

Query: Now this one: "COc1ccc(/C=C(/NC(=O)c2ccccc2)C(=O)NCC(=O)N(C(=O)NC2CCCCC2)C2CCCCC2)cc1"
Result: not fulfilled

Query: Also, CC(C)c1ccc(/C=C(/NC(=O)c2ccccc2)C(=O)NC(CS)C(=O)N(C(=O)NC2CCCCC2)C2CCCCC2)cc1 (configuration not stated) please.
Result: not fulfilled

====

- System: Rattus norvegicus
- Method notes: Antiinflammatory activity in Wister rat assessed as inhibition of carrageenan-induced paw edema at 100 mg/kg, po administered 1 hr before carrageenan challenge measured after 3 hrs by plethysmograph analysis
- Format: functional
Provide the recorded inhibition in vivo at 100 mg/kg for the entries that follow.
Answers are plain numbers, in %.

// below: answered compounds
>>> print(df.to_string())
                                   compound  unit_abbreviation  data_value
0  COc1cc(/C=C(/NC(=O)c2ccccc2)C(=O)NC(CS)C(=O)N(C(=O)NC2CCCCC2)C2CCCCC2)ccc1O (stereo unspecified)                  %        38.4
1  CC(C)c1ccc(/C=C(/NC(=O)c2ccccc2)C(=O)NCC(=O)N(C(=O)NC2CCCCC2)C2CCCCC2)cc1                  %          26

Could you report inhibition in vivo at 100 mg/kg for every entry in the following list?
1. CC(C)c1ccc(/C=C(/NC(=O)c2ccccc2)C(=O)NC(CS)C(=O)N(C(=O)NC2CCCCC2)C2CCCCC2)cc1 (stereo unspecified)
2. O=C(NC(CS)C(=O)N(C(=O)NC1CCCCC1)C1CCCCC1)/C(=C\c1ccc(Cl)cc1)NC(=O)c1ccccc1 (stereo unspecified)
3. COc1ccc(/C=C(/NC(=O)c2ccccc2)C(=O)NCC(=O)N(C(=O)NC2CCCCC2)C2CCCCC2)cc1
4. COc1ccc(/C=C(/NC(=O)c2ccccc2)C(=O)NC(CS)C(=O)N(C(=O)NC2CCCCC2)C2CCCCC2)cc1 (stereo unspecified)
5. Cc1ccc(/C=C(/NC(=O)c2ccccc2)C(=O)NCC(=O)N(C(=O)NC2CCCCC2)C2CCCCC2)cc1
6. O=C(NCC(=O)N(C(=O)NC1CCCCC1)C1CCCCC1)/C(=C\c1ccc(O)cc1)NC(=O)c1ccccc1
7. O=C(NC(CS)C(=O)N(C(=O)NC1CCCCC1)C1CCCCC1)/C(=C\c1ccc(F)cc1)NC(=O)c1ccccc1 (stereo unspecified)
8. O=C(O)Cc1ccccc1Nc1c(Cl)cccc1Cl [DICLOFENAC SODIUM]

Result:
1. 28.2
2. 22.8
3. 12
4. 31.5
5. 23.9
6. 31.5
7. 25
8. 66.8

Reference source for all entries: ChEMBL document CHEMBL3232756
